Recorded MCC mammalian cells Vero E6 ATCC CRL1586, one value per entry.
Test system: Vero E6 ATCC CRL1586 cells
Protocol: Mammalian-cell cytotoxicity, minimal cytotoxic concentration (CellTiter96)
Format: cell-based
Measured Attribute: MCC mammalian cells Vero E6 ATCC CRL1586

{"Molecule": "Cc1c(NC(=O)C(Cc2ccccc2)NC(=O)c2ccccc2)cccc1N1CCCC1 (centres unmarked) [I-193]", "Reported Value": ">100 µg/mL"}
{"Molecule": "Cc1ccccc1NC(=O)C(Cc1ccc(O)c(O)c1)NC(=O)c1ccccc1 (centres unmarked) [IX-25]", "Reported Value": "21 µg/mL"}
{"Molecule": "Cc1ccccc1NC(=O)C(Cc1ccc(O)cc1)NC(=O)c1ccccc1F (centres unmarked) [IX-54]", "Reported Value": ">100 µg/mL"}
{"Molecule": "O=C(NC(Cc1ccccc1)C(=O)Nc1cccc2cnccc12)c1ccccc1Cl (centres unmarked) [IX-63]", "Reported Value": ">100 µg/mL"}
{"Molecule": "COc1ccc(F)cc1NC(=O)C(Cc1ccc(O)cc1)NC(=O)c1ccccc1 (centres unmarked) [IX-203]", "Reported Value": ">100 µg/mL"}
